test system: SNB-78; assay: NCI tumour cell line growth inhibition, 48 h
Active and inactive are the calls of the source. No stated cut-off is given here; in the data, active = GI50 up to about 1.1 µM and inactive = higher.
metric-name: GI50

# compound, metric-name, observed-measurement
rows = [
    ("Cc1ccc(C)c(NC(=O)C(=O)C(C(=O)c2ccc3ccccc3c2)C2OC(=O)c3ccccc32)c1 (stereo unspecified)", "GI50", "17.9 µM (inactive)"),
    ("Fc1ccccc1C1CC(c2ccc3ccccc3c2)=Nc2ccccc2S1 (stereo unspecified)", "GI50", "> 100 µM (inactive)"),
    ("OCC(O)C(O)C(O)C(O)c1nnn[nH]1 (stereo unspecified)", "GI50", "> 100 µM (inactive)"),
    ("COCCCNC(=O)C1C(=O)N(CCCOC)C(=O)/C1=N\\N (stereo unspecified)", "GI50", "> 100 µM (inactive)"),
    ("CCCCCCCCCCCCCCCCNCC(O)CN (stereo unspecified)", "GI50", "2.48 µM (inactive)"),
]

Problem: Return GI50 for the following compound: Cc1cc(O)cc2oc(=O)c3c(O)cc(O)cc3c12
Solution: 34.5 µM (inactive)

Problem: Return GI50 for the following compound: O=C(Nc1ccc(Cl)cc1)C(=O)C(C(=O)c1ccccc1-c1ccccc1)C1OC(=O)c2ccccc21 (stereo unspecified)
Solution: > 100 µM (inactive)

Problem: Return GI50 for the following compound: COC(=O)CC[C@]12C[C@]13CC[C@]1(C)C4C(C)C[C@]5(CC(C)C(=O)O5)OC4CC1(C)C3CCC2C(C)(C)O (stereo partly specified)
Solution: 89.9 µM (inactive)

Problem: Return GI50 for the following compound: COc1cc(-c2nccc3cc(OC)c(OC)cc23)ccc1O
Solution: > 100 µM (inactive)

###

system: OVCAR-5; assay: NCI tumour cell line growth inhibition, 48 h
The source made the active and inactive calls. No stated cut-off is given here; in the data, active = GI50 up to about 1.1 µM and inactive = higher. *1 amine or outer side, *2 acyl side, *3 side chain or, on linkers, in order; H or OH if unused. Where a SMILES comes first, the peptide text is derived from it. Bridges are numbered along the chain shown (N, C = ends). [ ]: non-standard residue; d: D form. The star is where a group is joined. ξ: configuration not given here. ξOrn(4,5-diOH) = O=C(C(CC(O)C(O)N[*:3])N[*:1])[*:2]; ξhTyr(βξ-OH,γξ-OH) = NC(C(=O)O)C(O)C(O)c1ccc(O)cc1; ξPro(3ξ-OH,4ξ-Me) = CC1CNC(C(=O)O)C1O; X55 = CCCCC/C=C/C/C=C\CCCCCCCC(=O)*; Hyp = O=C(O)[CH]1C[CH](O)CN1
Thanks in advance; please answer with one of these: 1 (yes) (active), 0 (no) (inactive)

A selection of reference data follows.
# compound, discrete-label
rows = [
    ("c1ccc2c(c1)SCCCS2", "0 (no)"),
    ("COc1cccc([C@H]2CC(=O)c3cc4c(cc3N2)OCO4)c1", "1 (yes)"),
    ("CCCCC/C=C/C/C=C\\CCCCCCCC(=O)NC1CC(O)C(O)NC(=O)C2C(O)C(C)CN2C(=O)C(C(C)O)NC(=O)C(C(O)C(O)c2ccc(O)cc2)NC(=O)C2CC(O)CN2C(=O)C(C(C)O)NC1=O (stereo not drawn) (X55-[ξOrn(4,5-diOH)]T[Hyp][ξhTyr(βξ-OH,γξ-OH)]T[ξPro(3ξ-OH,4ξ-Me)]; lactam 1-C; configuration not given here)", "0 (no)"),
    ("COc1cc(Br)c(/C=N\\c2cccc3ccc(OS(=O)(=O)c4ccc([N+](=O)[O-])cc4)cc23)cc1OC", "0 (no)"),
    ("CCN(CC)c1ccc2cc(-c3nc(O)c4ccccc4n3)c(=N)oc2c1", "0 (no)"),
    ("N#C/C(=C\\c1ccc(O)c(O)c1)c1c(C#N)c(N)nn1-c1ccccc1", "0 (no)"),
    ("CCCCCCCCCCCCCCCCNCC(O)CN (stereo not given)", "0 (no)"),
    ("COC(=O)[C@H](Cc1ccccc1)NC(=O)c1ccc(CNC(=O)/C=C/c2csc(-c3ccccc3)n2)cc1", "0 (no)"),
    ("Nc1ncnc2c1ncn2[C@]1(CO)C=C(CO)C(O)C1O (stereo not given in full)", "0 (no)"),
    ("O=C(C[n+]1ccccc1)N/N=C(/CCC(=O)N(Cc1ccccc1)Cc1ccccc1)CC(=O)c1ccccc1", "0 (no)"),
]

Problem: Recorded test outcome, item NC(=O)c1nnc2cc(F)ccc2c1N
Solution: 0 (no)

Problem: Recorded test outcome, item O=C(NC(=S)Nc1ccc([N+](=O)[O-])cc1)c1ccc2c(c1)Sc1ccccc1O2
Solution: 0 (no)

Problem: Recorded test outcome, item O=C(CCNC12CC3CC(CC(C3)C1)C2)c1ccccc1
Solution: 0 (no)

Problem: Recorded test outcome, item O=C(Nc1ccc(Cl)cc1)C(=O)C(C(=O)c1ccccc1-c1ccccc1)C1OC(=O)c2ccccc21 (stereo not given)
Solution: 0 (no)

Problem: Recorded test outcome, item CCCCCCCCCCCCCCCC(=O)OCC1OC(n2cc(F)c(=O)[nH]c2=O)C(N)C(O)C1O (stereo not given)
Solution: 0 (no)

Problem: Recorded test outcome, item C=CC1OC(CCCOC(=O)C(C)(C)C)O[C@@H]1CC (stereo not given in full)
Solution: 0 (no)

Problem: Recorded test outcome, item COC(=O)c1ccccc1CC1Cc2c(C)ccc(C)c2C1=O (stereo not given)
Solution: 0 (no)
